system: Bacillus subtilis; test: cleaved RNA product abundance (RNA/gDNA barcode ratio) relative to median wild-type variant (ratio to wild type); higher = more accumulation of the downstream cleavage product; settings: experiment (reporter, strain, medium): exp 2b: truncated aprE reporter, strain BJT200; cleavage site: cggR-gapA (positions -7 to +36 mutated)
Returns 1 (yes) if the recorded cleaved RNA product abundance is greater than or equal to 0.6, and 0 (no) otherwise.

Worked examples, 6 sequences total:
query-sequence	label
ACAGACGAAGGAGCCGCAAAGAAGTTATTAAGGAATGTATAATCCCTCAATATAAATATCTCTCACTTATTTAAA	0 (no)
ACAGACGAAGGAGCCGCAAAGAAGTTATTAAGCGATGAATAATCCCTCAATAGAAATATCTCTCACTTATTTAAA	0 (no)
ACAGACGAAGGAGCCGCAAAGAAGTTATTAAGTGATGAATAATCCCTGAATATAAATATCTCTCACTTATTTAAA	0 (no)
ACAGACGAAGGAGCCGCAAATAAGTTAATAAGGGATGAATAATCCCTCAATATAAATATCTCTCACTTATTTAAA	0 (no)
ACAGACGAAGGAGCCGCAAATAAGTTATTAAGGGATGAATATTCCCTCAATATAAATATCTCTCACTTATTTAAA	1 (yes)
ACAGACGAAGGAGCCGCAAACAAGTTATTAACGGATGAATAATCCCTCAATATAAATATCTCTCACTTATTTAAA	0 (no)

Q. Has ACAGACGAAGGAGCCGCAAAGAAGTTATTAAGGGATGAATAATCTGTCAATATAAATATCTCTCACTTATTTAAA a recorded cleaved RNA product abundance greater than or equal to 0.6?
A. 0 (no)

Q. Is reported cleaved RNA product abundance greater than or equal to 0.6 here: ACAGACGAAGGAGCCGCAAAGAAATTATTAAGAGATGAATAATCCCTCAATATAAATATCTCTCACTTATTTAAA
A. 0 (no)

Q. Threshold query (cleaved RNA product abundance >= 0.6) on ACAGACGAAGGAGCCGCAAAAAAATTATTAAGGGATGAATAATCCCTCAATATAAATATCTCTCACTTATTTAAA
A. 1 (yes)

Q. Item ACAGACGAAGGAGCCGCAAAGAAGTTATTAAGGGATTAATAATACCTCAATATAAATATCTCTCACTTATTTAAA with cleaved RNA product abundance of 0.6 or above?
A. 0 (no)

Q. Evaluate ACAGACGAAGGAGCCGCAAAGAAGTTATTAAGGGATCAATAATCCCACAATATAAATATCTCTCACTTATTTAAA : cleaved RNA product abundance at minimum 0.6?
A. 0 (no)

Q. Could you please find out whether ACAGACGAAGGAGCCGCAAACAAGTTATTAAGCGATGAATAATCCCTCAATATAAATATCTCTCACTTATTTAAA has cleaved RNA product abundance that meets 0.6 or exceeds it?
A. 0 (no)

Q. Form field: cleaved RNA product abundance at least 0.6? Entry: ACAGACGAAGGAGCCGCAAAAAAGTTATTAAGGGATGAATATTCCCTCAATATAAATATCTCTCACTTATTTAAA
A. 1 (yes)

Q. Does ACAGACGAAGGAGCCGCAAAGAAGTTATTAATGGATGAATAATCCATCAATATAAATATCTCTCACTTATTTAAA have a reported cleaved RNA product abundance of at least 0.6?
A. 1 (yes)

Q. Say whether ACAGACGAAGGAGCCGCAAAGAAGTTATGAAGGCATGAATAATCCCTCAATATAAATATCTCTCACTTATTTAAA shows cleaved RNA product abundance of 0.6 or more.
A. 0 (no)

Q. Would you say ACAGACGAAGGAGCCGCAAATAAGTTTTTAAGGGATGAATAATCCCTCAATATAAATATCTCTCACTTATTTAAA shows cleaved RNA product abundance at minimum 0.6?
A. 0 (no)

Q. State whether the measured cleaved RNA product abundance reaches 0.6, counting equality as reaching it, for ACAGACGAAGGAGCCGCAAAGAAATTGTTAAGGGATGAATAATCCCTCAATATAAATATCTCTCACTTATTTAAA
A. 0 (no)

Q. Reported cleaved RNA product abundance reaches at least 0.6 for ACAGACGAAGGAGCCGCAAAGAAGTTATTAAGGGATTAATAATCCCTCAATATAAAGATCTCTCACTTATTTAAA ?
A. 0 (no)

Q. Hi team, for ACAGACGAAGGAGCCGCAAAGAAGTTATTAAGGGATGAATAATACCTCAATATAAAAATCTCTCACTTATTTAAA , is the recorded cleaved RNA product abundance at or above 0.6?
A. 0 (no)

Q. Does cleaved RNA product abundance meet or surpass 0.6 for ACAGACGAAGGAGCCGCAAAGAAGTTATTAAGGTATGAATAATCCCTCAATATAAATATCTCTCACTTATTTAAA ?
A. 0 (no)

Q. Test whether the sequence ACAGACGAAGGAGCCGCAAATAAGTTATTAAGGTATGAATAATCCCTCAATATAAATATCTCTCACTTATTTAAA records cleaved RNA product abundance of 0.6 or higher.
A. 0 (no)

Q. Confirm if cleaved RNA product abundance reported for the sequence ACAGACGAAGGAGCCGCAAAGAAGTTAATAAGCGATGAATAATCCCTCAATATAAATATCTCTCACTTATTTAAA is 0.6 or above.
A. 0 (no)

Q. Can ACAGACGAAGGAGCCGCAAAGATGTTATTAAGGGATCAATAATCCCTCAATATAAATATCTCTCACTTATTTAAA be said to have cleaved RNA product abundance at or above 0.6?
A. 1 (yes)

Q. Say whether ACAGACGAAGGAGCCGCAAAGAAGTTATTAAGGGATGAATCATACCTCAATATAAATATCTCTCACTTATTTAAA shows cleaved RNA product abundance of 0.6 or more.
A. 0 (no)

Q. Determine whether measured cleaved RNA product abundance meets or exceeds 0.6 for ACAGACGAAGGAGCCGCAAAGAAGTTATTAAGGGATGAATAATCCCTCAATATAAAAATCTCTCACTTATTTAAA
A. 1 (yes)

Q. Evaluate ACAGACGAAGGAGCCGCAAAGAAGTTATTAAGGGATGAATAAGCCCTCAATATAAATATCTCTCACTTATTTAAA : cleaved RNA product abundance at minimum 0.6?
A. 1 (yes)

Q. Check this sequence for cleaved RNA product abundance at or above 0.6: ACAGACGAAGGAGCCGCAAATAAGTTATTAAGGGATGAATAATCCTTCAATATAAATATCTCTCACTTATTTAAA
A. 0 (no)

Q. Can ACAGACGAAGGAGCCGCATAGAATTTATTAAGGGATGAATAATCCCTCAATATAAATATCTCTCACTTATTTAAA be said to have cleaved RNA product abundance at or above 0.6?
A. 1 (yes)

----------
test system: Bacillus subtilis; assay: cleaved RNA product abundance (RNA/gDNA barcode ratio) relative to median wild-type variant (ratio to wild type); higher = more accumulation of the downstream cleavage product; settings: experiment (reporter, strain, medium): exp 4a: truncated aprE reporter, strain BJT201 with 2% xylose (RNase J1 expressed); cleavage site: cggR-gapA (positions -7 to +36 mutated)
cleaved RNA product abundance values by entry
Enter the number alone.

Worked examples follow.
query-sequence	test-readout	quantitative-readout
ACAGACGAAGGAGCCGCAAACAAATTATTAAGGGATGAATAATCCCTCAATATAAATATCTCTCACTTATTTAAA	cleaved RNA product abundance	0.696
ACAGACGAAGGAGCCGCAAAGAAGCTATTAAGGGATGAACAATCCCTCAATATAAATATCTCTCACTTATTTAAA	cleaved RNA product abundance	0.568

Consider ACAGACGAAGGAGCCGCAAATAAGTTATTAAGGGAGGAATAATCCCTCAATATAAATATCTCTCACTTATTTAAA . Its measured cleaved RNA product abundance is 0.469

Per the records, this sequence ( ACAGACGAAGGAGCCGCAAATTAGTTATTAATGGATGAATAATCCCTCAATATAAATATCTCTCACTTATTTAAA ) has cleaved RNA product abundance equal to 0.153

cleaved RNA product abundance reported for this sequence ACAGACGAAGGAGCCGCAAAGAAGTTATTAAGGTATGAATAATTCCTCAATATAAATATCTCTCACTTATTTAAA : 0.156

Entry ACAGACGAAGGAGCCGCAAAGAAGTTATTAAATGATGAATAATCCCTCAATATAAATATCTCTCACTTATTTAAA ; cleaved RNA product abundance = 0.1

Record ACAGACGAAGGAGCCGCAAAGAAGTTATTCAGAGATGAATAATCCCTCAATATAAATATCTCTCACTTATTTAAA , field cleaved RNA product abundance: 0.159

----------
tested on: Bacillus subtilis; assay: cleaved RNA product abundance (RNA/gDNA barcode ratio) relative to median wild-type variant (ratio to wild type); higher = more accumulation of the downstream cleavage product; conditions: experiment (reporter, strain, medium): exp 4a: truncated aprE reporter, strain BJT201 with 2% xylose (RNase J1 expressed); cleavage site: cggR-gapA (positions -7 to +36 mutated)
Examples of sequences with documented cleaved RNA product abundance follow.
Give a plain numeric answer without units written out.

query-sequence	cleaved RNA product abundance
ACAGACGAAGGAGCCGCAAAGAAGTTATTTAGGGATGAATAATCCATCAATATAAATATCTCTCACTTATTTAAA	0.34
ACAGACGAAGGAGCCGCAAAGAAGTTATTAAGGGAAGAATACTCCCTCAATATAAATATCTCTCACTTATTTAAA	1.01
ACAGACGAAGGAGCCGCAAAGAAGTTATTAAGGGATGAAAAATCACTCAATATAAATATCTCTCACTTATTTAAA	0.101

Entry ACAGACGAAGGAGCCGCAAAGAAGTTATTAAGGGATGAATAAACCCTCATTATAAATATCTCTCACTTATTTAAA , cleaved RNA product abundance reported as 0.19

Data point: ACAGACGAAGGAGCCGCAAAGAAGTTATTAAGGAATTATTAATCCCTCAATATAAATATCTCTCACTTATTTAAA ; cleaved RNA product abundance = 0.203

Recorded cleaved RNA product abundance (sequence ACAGACGAAGGAGCCGCAAAGAAGTAATTAAGGGATAAATAATCCCTCAATATAAATATCTCTCACTTATTTAAA ): 0.219

Entry ACAGACGAAGGAGCCGCAAAGAACTTATTAAGGGATGAATAATCCCTCAATATAAACATCTCTCACTTATTTAAA , cleaved RNA product abundance reported as 0.348

In plain terms, ACAGACGAAGGAGCCGCAAAGAAGTTTTTAATGGATGAATAATCCCTCAATATAAATATCTCTCACTTATTTAAA has a documented cleaved RNA product abundance of 0.175

The sequence listed as ACAGACGAAGGAGCCGCAAAGAAGTTAATAAGGGATGAATAATCCCTCATTATAAATATCTCTCACTTATTTAAA shows cleaved RNA product abundance equal to 0.794

For ACAGACGAAGGAGCCGCAAAGAAGTTATTAAGGGATGAATTATCCCTCAACATAAATATCTCTCACTTATTTAAA the sequence record lists cleaved RNA product abundance as 0.284

In plain terms, ACAGACGAAGGAGCCGCAAATAAGTTATTAAGGGGTGAATAATCCCTCAATATAAATATCTCTCACTTATTTAAA has a documented cleaved RNA product abundance of 0.273

Form field cleaved RNA product abundance, entry ACAGACGAAGGAGCCGCGAAGAAGTGATTAAGGGATGAATAATCCCTCAATATAAATATCTCTCACTTATTTAAA : 0.347

Kindly note the recorded cleaved RNA product abundance for ACAGACGAAGGAGCCGCAAAGAAGTTATTAAGAGATGAATAATCCCTCAATATAAATATCTCTCACTATTTAAAG , which is 0.151

Documented cleaved RNA product abundance of ACAGACGAAGGAGCCGCAAAGAAGTTATTCTGGGATGAATAATCCCTCAATATAAATATCTCTCACTTATTTAAA : 0.742

// ACAGACGAAGGAGCCGCACATAAGTTATTAAGGGATGAATAATCCCTCAATATAAATATCTCTCACTTATTTAAA : cleaved RNA product abundance value = 1.07

Reference source for all entries: the supplement of paper PMC11780869
